Biological target: NADPH oxidase 5 (Homo sapiens)
Test: compounds shifting NOX5 Amplex Red fluorescence – cell-based, HEK293-NOX5, NOX inhibitor project, primary screen (AID 1161)
Details: HEK293-NOX5, ionomycin, 45 min, higher = more signal
The entries below come with measured z-score values attached.

# Smiles Notation, z-score
rows = [
    ("Cc1ccc(F)cc1S(=O)(=O)N[C@@H]1CCN(Cc2ccc(C(F)(F)F)cc2)C1", -2),
    ("COCCOC(=O)N1C(=O)[C@@]2(c3cc(C#CC4=CCCCC4)ccc31)[C@H](C(=O)N1CCN(c3ncccn3)CC1)[C@H]1C(=O)O[C@H](c3ccccc3)[C@H](c3ccccc3)N1[C@@H]2c1ccc(OCCO)cc1", 0.934),
    ("CCCNC(=O)[C@@]1(c2ccc([N+](=O)[O-])cc2)CC(=O)N(CC23CC4CC(CC(C4)C2)C3)[C@@H]1c1ccc(CO)cc1I", 2.21),
    ("[N-]=[N+]=Nc1ccccc1[C@@H]1OC(c2ccc(OCCCO)cc2)=N[C@]1(CCS(=O)(=O)c1ccccc1)C(=O)O", 0.778),
    ("C=CCOC(=O)[C@@H]1[C@H]2C(=O)O[C@H](c3ccccc3)[C@H](c3ccccc3)N2[C@H](c2ccc(OCCOC(=O)[C@H]3C[C@H]4C(=O)N[C@@H](Cc5ccccc5)C(=O)N4[C@H]3c3ccc(O)cc3)cc2)[C@@]12C(=O)Nc1ccc(I)cc12", 3.69),
    ("CC(C)[C@H]1COC(=O)N1C(=O)[C@H]1[C@@H](c2ccccc2)N(c2ccccc2)O[C@@H]1C", -2.5),
]
